// data source = patent US6737383B1

- System: giant foxtail
- assay notes: Test B pre/postemergence giant foxtail
- Format: in vivo, Setaria faberii
- assay context: Preemergence, Rate 250 g/ha; scale 0 (no effect) to 10 (complete control)
This section presents molecules with their documented Giant foxtail plant response rating values.

# molecule, Giant foxtail plant response rating
measured = [
    ("COP(=O)(CCn1c(=O)on(C(=O)N(c2ccc(F)cc2F)C(C)C)c1=O)OC", 10),
    ("COC(CCl)n1c(=O)on(C(=O)N(c2ccc(F)cc2F)C(C)C)c1=O (stereo not shown)", 10),
    ("CC(C)N(C(=O)n1oc(=O)n(C(C)C(=S)N(C)C)c1=O)c1ccc(F)cc1 (stereo not shown)", 8),
    ("Cc1nc(C(C)n2c(=O)on(C(=O)N(c3ccccc3)C(C)C)c2=O)sc1C (stereo not shown)", 9),
]
